# TARGET OF ASSAY: MexG (Pseudomonas aeruginosa)
# Sequence (Q9HWH6 1-148): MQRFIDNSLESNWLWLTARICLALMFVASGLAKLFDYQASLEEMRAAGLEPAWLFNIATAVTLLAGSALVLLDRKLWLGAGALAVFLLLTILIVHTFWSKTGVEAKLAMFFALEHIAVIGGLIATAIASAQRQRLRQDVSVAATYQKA
# TEST PROTOCOL: intrinsic Trp fluorescence quenching titration
REPORTED PROPERTY: Kd (nM)

| MOLECULE | TARGET OF ASSAY | ASSAY RESULT |
| --- | --- | --- |
| CCCCCCCc1[nH]c2ccccc2c(=O)c1O [PQS, 2-heptyl-3-hydroxy-4(1H)-quinolone] | MexG (Pseudomonas aeruginosa) | 1000 |
